B1: Osa-1-4 twister ribozyme (parent)
chain: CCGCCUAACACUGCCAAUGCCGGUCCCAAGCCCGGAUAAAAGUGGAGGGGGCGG

variants of: B1; assay: self-cleavage, relative activity (ratio to wild type); higher = more cleavage; co-transcriptional
The following variants are listed with their measured self-cleavage values.

Sequence Change: A29G A38G
self-cleavage: 0.15

Sequence Change: G47U G50U
self-cleavage: 0.1

Sequence Change: C31A C52G
self-cleavage: 0.05

Sequence Change: A39C G42A
self-cleavage: 0.1

Sequence Change: G22C G53U
self-cleavage: 0.04

Sequence Change: A17U C32U
self-cleavage: 0.25

Sequence Change: A28G G30A
self-cleavage: 0.05

Sequence Change: G47C
self-cleavage: 0.17

Sequence Change: G23U U18A
self-cleavage: 0.1

Sequence Change: A41G C52A
self-cleavage: 0.84

Sequence Change: A16C A29C
self-cleavage: 0.05

Sequence Change: A29G A41C
self-cleavage: 0.21

Sequence Change: G34A U37G
self-cleavage: 0.88

Sequence Change: A41G C33U
self-cleavage: 0.12

Sequence Change: C27G U43G
self-cleavage: 0.06

Sequence Change: A28C G45C
self-cleavage: 0.03

Sequence Change: A36C G19A
self-cleavage: 0.76

Sequence Change: A17G U37G
self-cleavage: 1.01

Sequence Change: G42A U24A
self-cleavage: 0.05

Sequence Change: A41C G42C
self-cleavage: 0.12

Sequence Change: A10C U12G
self-cleavage: 0.04

Sequence Change: A40C G47C
self-cleavage: 0.03

Sequence Change: C14A U18A
self-cleavage: 0.09

Sequence Change: A41G A8U
self-cleavage: 0.1

Sequence Change: A36U C14U
self-cleavage: 0.5

Sequence Change: A16G G45C
self-cleavage: 0.08

Sequence Change: G19U U43G
self-cleavage: 0.09

Sequence Change: A7G G34U
self-cleavage: 0.12

Sequence Change: C9G U37C
self-cleavage: 0.94

Sequence Change: A39U G48C
self-cleavage: 0.05

Sequence Change: C25G G49U
self-cleavage: 0.61

Sequence Change: A39C C33A
self-cleavage: 0.06

Sequence Change: C33U G45U
self-cleavage: 0.05

Sequence Change: C20U C26G
self-cleavage: 0.24

Sequence Change: C25A C27A
self-cleavage: 0.06

Sequence Change: C26U C27A
self-cleavage: 0.07

Sequence Change: A17C U12G
self-cleavage: 0.18

Sequence Change: A28U C32A
self-cleavage: 0.07

Sequence Change: A46C G54C
self-cleavage: 0.08

Sequence Change: A29C G22C
self-cleavage: 0.03

Sequence Change: A41U C21U
self-cleavage: 1

Sequence Change: A7G G30C
self-cleavage: 0.03

Sequence Change: A38G G49C
self-cleavage: 0.08

Sequence Change: C31G G51U
self-cleavage: 0.05

Sequence Change: G35A G45A
self-cleavage: 0.31

Sequence Change: G35U U24C
self-cleavage: 0.08

Sequence Change: C21U G54U
self-cleavage: 0.93

Sequence Change: C21U G48A
self-cleavage: 0.1

Sequence Change: A46G G51U
self-cleavage: 0.05

Sequence Change: C33G G51A
self-cleavage: 0.06

Sequence Change: G30A G49A
self-cleavage: 0.02

Sequence Change: A36U C9U
self-cleavage: 0.83

Sequence Change: A46U C27A
self-cleavage: 0.04

Sequence Change: C32U G30A
self-cleavage: 0.02

Sequence Change: A40U G45C
self-cleavage: 0.06

Sequence Change: G35C U18G
self-cleavage: 0.77

Sequence Change: C52G G30A
self-cleavage: 0.06

Sequence Change: A29G G34A
self-cleavage: 0.13

Sequence Change: G13U U24G
self-cleavage: 0.02

Sequence Change: A17G C26G
self-cleavage: 0.12

Sequence Change: C31U G42A
self-cleavage: 0.09

Sequence Change: A8C G13A
self-cleavage: 0.03

Sequence Change: A29C G48C
self-cleavage: 0.02

Sequence Change: A46C C9G
self-cleavage: 0.05

Sequence Change: G47A U18G
self-cleavage: 0.56

Sequence Change: C25U G45U
self-cleavage: 0.05

Sequence Change: A17C G48A
self-cleavage: 0.05
